Task for the reader: assign each of the following molecules its reported chromatographic logP.
assay protocol: log P determination by HPLC (EEC Directive 79/831 Annex V. A8)
Assay type: physicochemical
Give bare numbers.

INSERT INTO assay_data (item_smiles, experimental_value) VALUES
  ('CON=C(C)C(C)=NN=Cc1ccccc1C(=NOC)C1=NOCCO1', 3.17),
  ('CON=C(C(C)=NN=Cc1ccccc1/C(=N/OC)C1=NOCCO1)C(C)C', 3.92),
  ('CCON=C(C)C(C)=NN=Cc1ccccc1C(=NOC)C1=NOCCO1', 3.61),
  ('CCC(=NOC)C(C)=NN=Cc1ccccc1/C(=N/OC)C1=NOCCO1', 3.58),
  ('CON=C(C1=NOCCO1)c1ccccc1C=NN=C(C)c1ccc(C(F)(F)F)cc1', 3.8);

Next molecule, chromatographic logP to be filled in.
Problem: Given the molecule CON=C(C1=NOCCO1)c1ccccc1C=NN=C(C)c1cccc(C(F)(F)F)c1 , write its reported chromatographic logP.
Solution: 3.8

These entries and their values trace back to patent US6420362B1.
